Attribution: patent US7655645B2

Biological target: human CB1 receptor (Homo sapiens, UniProt P21554)
Sequence (P21554 whole entry): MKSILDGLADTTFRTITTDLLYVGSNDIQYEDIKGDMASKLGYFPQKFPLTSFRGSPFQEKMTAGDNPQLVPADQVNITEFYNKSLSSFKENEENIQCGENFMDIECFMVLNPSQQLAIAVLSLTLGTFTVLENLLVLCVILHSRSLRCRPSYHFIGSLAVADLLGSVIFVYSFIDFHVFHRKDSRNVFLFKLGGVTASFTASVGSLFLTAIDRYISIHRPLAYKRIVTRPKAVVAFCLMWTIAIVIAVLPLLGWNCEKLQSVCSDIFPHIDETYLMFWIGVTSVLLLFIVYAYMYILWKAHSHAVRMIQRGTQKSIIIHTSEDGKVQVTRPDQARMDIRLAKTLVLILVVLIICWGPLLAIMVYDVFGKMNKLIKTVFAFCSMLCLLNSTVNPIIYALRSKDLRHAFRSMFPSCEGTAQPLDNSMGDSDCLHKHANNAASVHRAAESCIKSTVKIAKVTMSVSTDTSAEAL
Assay: In-vitro determination of efficacy and potency at the human CB1 receptor expressed in CHO cells (luciferase reporter assay)
Conditions: CHO cells expressing the human CB1 receptor and a luciferase reporter gene; 5 h incubation at 37° C.
MEASUREMENT_NAME: EC50 (nM)
Answer with a number only, understood to be in nM.

// recorded EC50 for NC(=O)CN1CCN(Cc2csc(-c3cn(CC4CCOCC4)c4c(Cl)cccc34)n2)CC1 [Example 31] : 63.1

// recorded EC50 for NC(=O)CN1CCCN(Cc2nc(-c3cn(CC4CCOCC4)c4c(Cl)cccc34)no2)CC1 [Example 21d] : 63.1

// recorded EC50 for COc1cccc2c(-c3nsc(CN4CCN(CC(N)=O)CC4)n3)cn(CC3CCOCC3)c12 [Example 7a] : 100

// recorded EC50 for CNC(=O)CN1CCN(Cc2nc(-c3cn(CC4CCOCC4)c4c(Cl)cccc34)no2)C[C@H]1CO [Example 24] : 12.6

// recorded EC50 for NC(=O)CN1CCN(Cc2nc(-c3cn(CC4CCOCC4)c4c(Cl)cccc34)ns2)CC1 [Example 1] : 15.8

// recorded EC50 for NC(=O)CN1CCN(Cc2nc(-c3cn(CC4CCOCC4)c4c(Cl)cccc34)no2)CC1 [Example 11] : 79.4

// recorded EC50 for CCc1cccc2c(-c3nsc(CN4CCN(CC(=O)NC(C)C)CC4)n3)cn(CC3CCOCC3)c12 [Example 6b] : 50.1

// recorded EC50 for CCc1cccc2c(-c3nsc(CN4CCN(CC(=O)OC)CC4)n3)cn(CC3CCOCC3)c12 [Example 6d] : 63.1

// recorded EC50 for CCNC(=O)CN1CCN(Cc2nc(-c3cn(CC4CCOCC4)c4c(Cl)cccc34)ns2)CC1 [Example 3] : 39.8

// recorded EC50 for O=S1(=O)CCC(Cn2cc(-c3noc(CN4CCN(Cc5ncon5)CC4)n3)c3cccc(Cl)c32)CC1 [Example 17] : 158
